molecular target: wild-type ELIC (Dickeya chrysanthemi, UniProt P0C7B7, INS163G); construct: expressed in transfected cells; host or cells: Xenopus laevis oocytes injected with cRNA from ELIC-pTLN; assay: Two-electrode voltage clamp, whole-cell currents of wild-type ELIC expressed in Xenopus laevis oocytes; assay type: cell-based, Erwinia chrysanthemi; conditions: WT ELIC, agonist-activated peak current, −60 mV, mean ± s.d.; read-out: Activation EC50
pEC50: −log10 of the molar value.
Result type: pEC50

Compound: NCCS [cysteamine]
Reported measurement: 3.22

----------
target: ELIC L240A (L9′A) + A75D/F133W (Dickeya chrysanthemi, UniProt P0C7B7, A75D/F133W/L239A); assay: Two-electrode voltage clamp, L9′A + A75D/F133W triple mutant ELIC expressed in Xenopus laevis oocytes; conditions: L240A (L9′A) + A75D/F133W, cysteamine as agonist; read-out: Activation EC50

Smiles data: NCCS
EC50 (mM): 4.3

The reported measurements were obtained from paper PMC9674596.
